# procedureSummary: in vitro
# studyConditions: human, microsomes, pH 7.4
I'd be grateful if you could share measured half-life for these entries.
Report the value in h with no unit label.

query: Give its half-life value. Item: [2H]C([2H])([2H])N1C[C@H](C(=O)N(C([2H])([2H])C([2H])([2H])[2H])C([2H])([2H])C([2H])([2H])[2H])C=C2c3cccc4[nH]cc(c34)C[C@H]21
result: 1.61

query: Give its half-life value. Item: CCN(CC)C(=O)[C@@H]1C=C2c3cccc4[nH]cc(c34)C[C@H]2N(C)C1 [LSD, Lysergic acid diethylamide, reference compound]
result: 1.42

query: Give its half-life value. Item: [2H]c1[nH]c2cccc3c2c1C[C@@H]1C3=C[C@@H](C(=O)N(C([2H])([2H])C([2H])([2H])[2H])C([2H])([2H])C([2H])([2H])[2H])CN1C
result: 1.39

query: Give its half-life value. Item: [2H]c1[nH]c2c([2H])c([2H])c([2H])c3c2c1C[C@@H]1C3=C[C@@H](C(=O)N(C([2H])([2H])C([2H])([2H])[2H])C([2H])([2H])C([2H])([2H])[2H])CN1C
result: 2

Values compiled from patent US20260092060A1.
